The measurements presented in this section are drawn from patent US9850247B2.

Measured microsomal CLint at 1 μM by item
assay: CLint estimates using human liver microsomes (Method 4); assay type: in vitro ADME; details: pH 7.4, 1 μM compound, read-out: Mics - CLint (HLM CLint)

Study these solved cases before continuing.
CN1CN(c2c(Cl)cccc2Cl)C(=O)c2cnc(Nc3ccc(N4CCN[C@H](CO)C4)c(F)c3)nc21 [Example 48] | ≤ 15 µL/min/mg
C[C@@H]1CN(c2ccc(Nc3ncc4c(n3)N(C)CN(c3c(Cl)cccc3Cl)C4=O)cc2)[C@H](C)CN1 [Example 79] | 15 to 50 µL/min/mg
CN1CN(c2c(Cl)cccc2Cl)C(=O)c2cnc(Nc3ccc(N4CCNCC4)c(CO)c3)nc21 [Example 10] | ≤ 15 µL/min/mg
CC(=O)NCc1cc(Nc2ncc3c(n2)N(C)CN(c2c(Cl)cccc2Cl)C3=O)ccc1N1CCNCC1 [Example 145] | ≤ 15 µL/min/mg
CN1CCC(c2ccc(Nc3ncc4c(n3)N(C)CN(c3c(Cl)cccc3Cl)C4=O)cc2)CC1 [Example 95] | ≤ 15 µL/min/mg

Return reported microsomal CLint at 1 μM; argument: C[C@@H]1CN(c2ccc(Nc3ncc4c(n3)N(c3ccn(C)n3)CN(c3c(Cl)cccc3Cl)C4=O)cc2)CCN1 [Example 58] ≤ 15 µL/min/mg

Can you share its microsomal CLint at 1 μM? I mean this compound: COC[C@H]1CN(c2ccc(Nc3ncc4c(n3)N(C)CN(c3c(Cl)cccc3Cl)C4=O)cc2CO)CCN1 [Example 135] ≤ 15 µL/min/mg

* * *

Here we list compounds with their recorded IC50 when tested on Wee-1 kinase (Homo sapiens, UniProt P30291).
Sequence (P30291 whole entry): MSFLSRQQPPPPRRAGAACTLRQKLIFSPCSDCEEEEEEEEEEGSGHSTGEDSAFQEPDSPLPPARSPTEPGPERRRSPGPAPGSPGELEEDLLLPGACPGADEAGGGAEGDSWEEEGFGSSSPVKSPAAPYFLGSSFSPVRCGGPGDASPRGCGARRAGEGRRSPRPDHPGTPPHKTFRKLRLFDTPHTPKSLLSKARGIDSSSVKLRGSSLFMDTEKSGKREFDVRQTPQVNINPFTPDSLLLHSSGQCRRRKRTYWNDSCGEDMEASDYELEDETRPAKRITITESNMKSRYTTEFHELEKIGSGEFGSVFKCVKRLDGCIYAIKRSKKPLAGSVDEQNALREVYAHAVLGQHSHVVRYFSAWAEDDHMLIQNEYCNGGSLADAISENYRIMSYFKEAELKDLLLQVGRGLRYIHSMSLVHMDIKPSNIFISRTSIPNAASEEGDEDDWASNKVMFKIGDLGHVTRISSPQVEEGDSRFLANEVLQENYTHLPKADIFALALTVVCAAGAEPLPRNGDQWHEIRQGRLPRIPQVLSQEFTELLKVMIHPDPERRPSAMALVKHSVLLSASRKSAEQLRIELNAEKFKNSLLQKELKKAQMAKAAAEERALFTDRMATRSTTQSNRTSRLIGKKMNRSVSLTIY

CN1CN(c2c(Cl)cccc2Cl)C(=O)c2cnc(Nc3ccc(N4CCN[C@H](CO)C4)c(F)c3)nc21 | 10 to 100 nM
CN(C)Cc1cc(Nc2ncc3c(n2)N(C)CN(c2c(Cl)cccc2Cl)C3=O)ccc1N1CCS(=O)(=O)CC1 | ≤ 10 nM
C[C@@H]1CN(c2ccc(Nc3ncc4c(n3)N(C)CN(c3c(Cl)cccc3Cl)C4=O)cc2F)CCN1 | ≤ 10 nM
COc1cc(Nc2ncc3c(n2)N(C)CN(c2c(Cl)cccc2Cl)C3=O)ccc1N1C[C@@H]2C[C@H]1CN2 | 10 to 100 nM
CN1CN(c2c(Cl)cccc2Cl)C(=O)c2cnc(Nc3ccc(N4CC5COCC(C4)N5C)cc3)nc21 | 10 to 100 nM
C[C@@H]1CN(c2ccc(Nc3ncc4c(n3)N(C)CN(c3ccccc3Cl)C4=O)cc2)[C@@H](C)CN1 | 10 to 100 nM

Please find the next compound below.
// returns reported IC50 for input `CN1CN(c2ccccc2Cl)C(=O)c2cnc(Nc3ccc(N4CCNCC4)cc3)nc21` 10 to 100 nM

* * *

These records show pIC50 for Wee-1 kinase (Homo sapiens).
pIC50: −log10 of the molar value.

CN1CN(c2c(F)cccc2Cl)C(=O)c2cnc(Nc3ccc(N4C[C@@H]5C[C@H]4CN5)cc3)nc21 [Example 54] | 7.00 to 8.00
COCc1cc(Nc2ncc3c(n2)N(C)CN(c2c(Cl)cccc2Cl)C3=O)ccc1N1CCN(C)CC1 [Example 69] | 7.00 to 8.00
C[C@@H]1CN(C)[C@@H](C)CN1c1ccc(Nc2ncc3c(n2)N(C)CN(c2c(Cl)cccc2Cl)C3=O)cc1 [Example 45] | 7.00 to 8.00
CN1CN(c2c(F)cccc2Cl)C(=O)c2cnc(Nc3ccc(N4CCNCC4)cc3)nc21 [Example 25] | 7.00 to 8.00
COc1cc(Nc2ncc3c(n2)N(C)CN(c2ccccc2Cl)C3=O)ccc1N1C[C@@H]2C[C@H]1CN2 [Example 107] | 7.00 to 8.00

Look up pIC50 with Wee-1 kinase (Homo sapiens) for this molecule: C[C@@H]1CN(c2ccc(Nc3ncc4c(n3)N(C)CN(c3c(Cl)cccc3Cl)C4=O)cc2CO)C[C@H](C)N1 [Example 158] ≥ 8.00

Find the measured pIC50: item C[C@@H]1CN(c2ccc(Nc3ncc4c(n3)N(C)CN(c3c(Cl)cccc3Cl)C4=O)cc2)CCN1 [Example 16] , target or system Wee-1 kinase (Homo sapiens). ≥ 8.00

Notebook entry, Wee-1 kinase (Homo sapiens) assay: pIC50 of CN1CN(c2c(Cl)cccc2Cl)C(=O)c2cnc(Nc3ccc(N4CC5CCC(C4)N5C)c(CO)c3)nc21 [Example 86] = ? ≥ 8.00

Give pIC50 (Wee-1 kinase (Homo sapiens)) of the following molecule: CNCc1cc(Nc2ncc3c(n2)N(C)CN(c2c(Cl)cccc2Cl)C3=O)ccc1N1C[C@@H](C)O[C@@H](C)C1 [Example 148] ≥ 8.00

Field: pIC50 (Wee-1 kinase (Homo sapiens)). Entry: Cc1cc(Nc2ncc3c(n2)N(C)CN(c2c(Cl)cccc2Cl)C3=O)ccc1N1C[C@H]2C[C@@H]1CN2 [Example 118] 7.00 to 8.00
